Hello, the source for this data is ChEMBL document CHEMBL4033761, in case you need it.

# maps each entry to its fraction unbound
# ASSAY METHOD TEXT: Fraction unbound in human plasma
Please reply with the value in numeric form only.

COMPOUND: NS1(=O)=NC(=O)c2ccccc21 (centres undefined)
fraction unbound: 0.4
--
COMPOUND: CCN1C(=O)c2ccccc2S1(=N)=O (centres undefined)
fraction unbound: 0.83
--
COMPOUND: O=C1N=S(=O)(Nc2ccccc2)c2ccccc21 (centres undefined)
fraction unbound: 0.088

Next:
Q: Looking for the measured fraction unbound of CCNC1=NS(=O)(=O)c2ccccc21 , can you help?
Result: 0.56

* * *

# ASSAY METHOD TEXT: Apparent permeability of the compound across apical side to basolateral side in human Caco2 cells
# MEASUREMENT CONDITIONS: Caco-2
REPORTED ENDPOINT: Papp A→B (nm/s)
Give just the numeric value; nm/s need not be written.

Q: Looking for the measured Papp A→B of N=S1(=O)c2ccccc2C(=O)N1Cc1ccccc1 (stereo not drawn) , can you help?
Result: 847

Q: Looking for the measured Papp A→B of CCNC1=NS(=O)(=O)c2ccccc21 , can you help?
Result: 293

Q: Looking for the measured Papp A→B of NC1=NS(=O)(=O)c2ccccc21 , can you help?
Result: 73.9

* * *

# ASSAY METHOD TEXT: Distribution coefficient, log D of compound at pH 7.4
# MEASUREMENT CONDITIONS: octanol/water
REPORTED ENDPOINT: logD
Please reply with the value in numeric form only.

Q: Looking for the measured logD of O=S1(=O)N=C(NCc2ccccc2)c2ccccc21 , can you help?
Result: 1.9

Q: Looking for the measured logD of O=C1N=S(=O)(Nc2ccccc2)c2ccccc21 (stereo not given) , can you help?
Result: -1.1

Q: Looking for the measured logD of CCN1C(=O)c2ccccc2S1(=N)=O (stereo not given) , can you help?
Result: 0.7

Q: Looking for the measured logD of O=C1N=S(=O)(NCc2ccccc2)c2ccccc21 (stereo not given) , can you help?
Result: 0.8
